target: Recombinant human CD33 protein (Homo sapiens (Human), UniProt P20138); experiment: CD33 competitive binding assay for HTS drug screen (fluorescent multivalent sialic acid probe)
Sequence (P20138 18-259): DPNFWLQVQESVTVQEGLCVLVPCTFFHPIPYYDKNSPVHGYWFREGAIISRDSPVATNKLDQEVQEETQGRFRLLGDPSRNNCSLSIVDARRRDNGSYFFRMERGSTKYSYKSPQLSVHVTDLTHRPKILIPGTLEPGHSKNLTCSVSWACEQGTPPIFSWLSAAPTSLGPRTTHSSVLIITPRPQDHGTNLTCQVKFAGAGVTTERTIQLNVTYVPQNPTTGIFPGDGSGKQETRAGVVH
Recorded log10(EC50), one value per entry.
Log10 applied to EC50; unit prior to transform: nM.

Sample records with log10(EC50):
compound	test_result
CC(=O)N[C@H]1[C@H]([C@H](O)[C@H](O)CNC(=O)c2cc(C)c(O)c(C)c2)O[C@@](CCN2C(C)CCC23CCN(C(=O)OC(C)(C)C)C3)(C(=O)O)C[C@@H]1O (stereo partly shown)	2.06
CC(=O)N[C@H]1[C@H]([C@H](O)[C@H](O)CNC(=O)c2cc(C)c(O)c(C)c2)O[C@@](C[C@@H]2COCC3(CCN(C(=O)OC(C)(C)C)CC3)N2)(C(=O)O)C[C@@H]1O	4.03
CC(=O)N[C@H]1[C@H]([C@H](O)[C@H](O)CNC(=O)c2cc(C)c(O)c(C)c2)O[C@@](C/C=C/c2cccc(CNC(=O)c3ccc4[nH]ccc4c3)c2)(C(=O)O)C[C@@H]1O [A-242]	2.70
CCC/C(C)=C/C(=O)NC[C@@H](O)[C@@H](O)[C@@H]1O[C@@](CCN2CCOC[C@@]23CCN(C(=O)OC(C)(C)C)C3)(C(=O)O)C[C@H](O)[C@H]1NC(C)=O	3.62
CC(=O)N[C@H]1[C@H]([C@H](O)[C@H](O)CNC(=O)c2cc(C)c(O)c(C)c2)O[C@@](CC2OC(C)(C)O[C@H]2c2cccc(NC(=O)CC(C)(C)C)c2)(C(=O)O)C[C@@H]1O (stereo partly shown)	3.18
CC(=O)N[C@H]1[C@H]([C@H](O)[C@H](O)CNC(=O)c2cc(C)c(O)c(C)c2)O[C@@](C/C=C/c2cccc(CNC(=O)c3ccc(NS(C)(=O)=O)cc3)c2)(C(=O)O)C[C@@H]1O	3.05

Quick one: log10(EC50) of `CC(=O)N[C@H]1[C@H]([C@H](O)[C@H](O)CNC(=O)c2cc(C)c(C(N)=O)c(C)c2)O[C@@](CCN2CCOC[C@@]23CCN(C(=O)OC(C)(C)C)C3)(C(=O)O)C[C@@H]1O` ?
2.54

Note, next up: `CC(=O)N[C@H]1[C@H]([C@H](O)[C@H](O)CNC(=O)c2cc(C)c(O)c(C)c2)O[C@@](CCN2CCOCC23CCN(C(=O)OC(C)(C)C)CC3)(C(=O)O)C[C@@H]1O`
2.91

Check `CC(=O)N[C@H]1[C@H]([C@H](O)[C@H](O)CNC(=O)c2cc(C)c(O)c(C)c2)O[C@@](CCN2CCOC[C@@]23CCN(C(=O)OC(C)(C)C)C3)(C(=O)NS(C)(=O)=O)C[C@@H]1O` too.
4.57

The measurements presented in this section are drawn from patent US20250313574A1.
